For each record, write down the corresponding Emax.
- test target: DCN1 protein (Homo sapiens (Human), UniProt Q96GG9)
- Sequence (Q96GG9 whole entry): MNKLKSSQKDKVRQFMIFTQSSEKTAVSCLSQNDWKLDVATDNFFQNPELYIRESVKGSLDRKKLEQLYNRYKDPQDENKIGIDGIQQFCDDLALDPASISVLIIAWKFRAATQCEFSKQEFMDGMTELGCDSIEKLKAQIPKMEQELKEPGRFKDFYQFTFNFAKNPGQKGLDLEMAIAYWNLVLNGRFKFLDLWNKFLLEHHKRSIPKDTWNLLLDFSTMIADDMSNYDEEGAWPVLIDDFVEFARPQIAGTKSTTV
- procedure details: Intact protein MS analysis with the RapidFire-TOF system (covalent adduct formation)
- Format: binding
- reported conditions: 400 nM DCN1, incubated at room temperature for 3 hours

# compound, value measured
measured = [
    ("CCN1C(=O)[C@H](NC(=O)c2cccc(C(F)(F)F)c2)[C@@H](c2ccccc2NC(=O)CCl)c2c(C)nn(-c3ccccc3)c21 (racemic) [Compound I-208]", "80 to 100%"),
    ("C=C(CN1CCOCC1)C(=O)NCc1cccc([C@@H]2c3c(C)nn(-c4ccccc4)c3N(CC)C(=O)[C@H]2NC(=O)c2cccc(C(F)(F)F)c2)c1 [Compound I-215]", "80 to 100%"),
    ("C=C(CN1CCC1)C(=O)Nc1cccc([C@H]2c3c(C)nn(-c4ccccc4)c3N(CC)C(=O)[C@@H]2NC(=O)c2cccc(C(F)(F)F)c2)c1 (racemic) [Compound I-137]", "80 to 100%"),
    ("CCN1C(=O)[C@H](NC(=O)c2cccc(C(F)(F)F)c2)[C@@H](c2cccc(NC(=O)COc3c(F)c(F)cc(F)c3F)c2)c2c(C)nn(-c3ccccc3)c21 (racemic) [Compound I-171]", "0 to 30%"),
]

Request: // lookup Emax for C=C(C)C(=O)Nc1cccc([C@H]2c3c(C)nn(-c4ccccc4)c3N(CC)C(=O)[C@@H]2NC(=O)c2cccc(C(F)(F)F)c2)c1 (racemic) [Compound I-201]
Response: 0 to 30%
